system: Saccharomyces cerevisiae BY4741 SeMeCo community; assay: z-score of subpopulation abundance vs DMSO median, subpopulation auxotrophic for UM; higher = larger share of this subpopulation than in DMSO controls; settings: 10 µM; 24 h; SM minimal medium; subpopulation (auxotrophy): UM
Structures can show the parent of a compound that is named as a salt.
I would appreciate it if you labelled entries label 1 when z-score of subpopulation abundance is 0.3 or higher, otherwise label 0.

- molecule: "C=CC(C)(O)CCC=C(C)C (configuration not stated)"
  discrete-label: "label 1"
- molecule: "COc1ccc2c(c1)c(CC(=O)OCC(=O)O)c(C)n2C(=O)c1ccc(Cl)cc1"
  discrete-label: "label 0"
- molecule: "Nc1c2c(nc3ccccc13)CCCC2 [Tacrine hydrochloride hydrate]"
  discrete-label: "label 1"
- molecule: "O=c1ccc2ccc(OCCCCN3CCN(c4cccc5sccc45)CC3)cc2[nH]1"
  discrete-label: "label 1"
- molecule: "CC(=O)OCC[N+](C)(C)C [Acetylcholine iodide]"
  discrete-label: "label 0"
- molecule: "CN(C)CCn1nnnc1SCC1=C(C(=O)O)N2C(=O)[C@@H](NC(=O)Cc3csc(N)n3)[C@H]2SC1 [Cefotiam hydrochloride]"
  discrete-label: "label 1"
- molecule: "CC[C@H](C)C(=O)O[C@H]1CCC=C2C=C[C@H](C)[C@H](CC[C@@H]3C[C@@H](O)CC(=O)O3)[C@H]21"
  discrete-label: "label 1"
- molecule: "C[C@]12CC[C@@H]3c4ccc(O)cc4CC[C@H]3[C@@H]1CC[C@@H]2O"
  discrete-label: "label 0"
- molecule: "CC(=O)Oc1ccc(C(=C2CCCCC2)c2ccc(OC(C)=O)cc2)cc1"
  discrete-label: "label 0"
- molecule: "CCCN(CCC)CCc1cccc2c1CC(=O)N2 [Ropinirole HCl]"
  discrete-label: "label 0"
- molecule: "CN(C)[C@@H](CCOc1cccc2ccccc12)c1ccccc1 [Dapoxetine HCl]"
  discrete-label: "label 0"
- molecule: "COc1ccc2cc(CCC(C)=O)ccc2c1"
  discrete-label: "label 0"
- molecule: "COc1cccc2c1C(=O)c1c(O)c3c(c(O)c1C2=O)C[C@@](O)(C(C)=O)C[C@@H]3O[C@H]1C[C@H](N)[C@H](O)[C@H](C)O1 [Daunorubicin HCl]"
  discrete-label: "label 1"
- molecule: "CC1=C(C(=O)OCCN(Cc2ccccc2)c2ccccc2)C(c2cccc([N+](=O)[O-])c2)C(P2(=O)OCC(C)(C)CO2)=C(C)N1 (configuration not stated)"
  discrete-label: "label 1"
- molecule: "OC(c1ccccc1)(c1ccccc1)C12CC[N+](CCOCc3ccccc3)(CC1)CC2 [Umeclidinium bromide]"
  discrete-label: "label 0"
- molecule: "CC(c1cc2ccccc2s1)N(O)C(N)=O (configuration not stated)"
  discrete-label: "label 1"
- molecule: "OCCN1CCN(CCCN2c3ccccc3Sc3ccc(Cl)cc32)CC1"
  discrete-label: "label 0"

---

tested on: Saccharomyces cerevisiae BY4741 SeMeCo community; assay: z-score of subpopulation abundance vs DMSO median, subpopulation auxotrophic for HL; higher = larger share of this subpopulation than in DMSO controls; settings: 10 µM; 24 h; SM minimal medium; subpopulation (auxotrophy): HL
Structures can show the parent of a compound that is named as a salt.
just bin them by z-score of subpopulation abundance: Low: < -0.4; Mid: ≥ -0.4 and < 0.1; High: ≥ 0.1

- molecule: "COc1cc(NS(=O)(=O)c2ccc(N)cc2)nc(OC)n1 [SulfadiMethoxine sodium]"
  discrete-label: "Mid"
- molecule: "NC12CC3CC(CC(C3)C1)C2 [Amantadine HCl]"
  discrete-label: "Mid"
- molecule: "Nc1nc2[nH]cc(CCc3ccc(C(=O)N[C@@H](CCC(=O)O)C(=O)O)cc3)c2c(=O)[nH]1 [Pemetrexed Disodium Hydrate]"
  discrete-label: "High"
- molecule: "CCN(CC)C(=O)C1(c2ccccc2)CC1CN (stereo not drawn) [Milnacipran HCl]"
  discrete-label: "Low"
- molecule: "COc1ccc2c3c1O[C@H]1C[C@@H](O)C=C[C@@]31CCN(C)C2 [Galanthamine HBr]"
  discrete-label: "Mid"
- molecule: "CCc1nc(N)nc(N)c1-c1ccc(Cl)cc1 [Pyrimethamine]"
  discrete-label: "Mid"
- molecule: "Cc1nnc(NS(=O)(=O)c2ccc(N)cc2)s1 [Sulfamethizole]"
  discrete-label: "Low"
- molecule: "CN1C(C(=O)Nc2ccccn2)=C(O)c2ccccc2S1(=O)=O [Piroxicam]"
  discrete-label: "Mid"
- molecule: "CN1CC2c3ccccc3Oc3ccc(Cl)cc3C2C1 (stereo not drawn) [Asenapine maleate]"
  discrete-label: "High"
- molecule: "CC(c1cc2ccccc2s1)N(O)C(N)=O (stereo not drawn) [Zileuton]"
  discrete-label: "Mid"
- molecule: "Cc1ccnc(NS(=O)(=O)c2ccc(N)cc2)n1 [Sulfamerazine]"
  discrete-label: "High"
- molecule: "C[C@@H](O)[C@H]1C(=O)N2C(C(=O)[O-])=C(SC3Cn4cnc[n+]4C3)[C@H](C)[C@H]12 (stereo partly drawn) [Biapenem]"
  discrete-label: "Low"
- molecule: "CC(=O)O[C@]1(C(C)=O)CC[C@H]2[C@@H]3C[C@H](C)C4=CC(=O)CC[C@]4(C)[C@H]3CC[C@@]21C [Medroxyprogesterone acetate]"
  discrete-label: "Mid"
- molecule: "OCc1ccccc1O[C@@H]1O[C@H](CO)[C@@H](O)[C@H](O)[C@H]1O [Salicin]"
  discrete-label: "Low"
- molecule: "O=C(Nc1ccc(Oc2ccc(Cl)cc2)c(Cl)c1)c1cc(I)cc(I)c1O [Rafoxanide]"
  discrete-label: "High"
- molecule: "O=C(c1ccc(F)cc1)C1CCN(CCn2c(=O)[nH]c3ccccc3c2=O)CC1 [Ketanserin]"
  discrete-label: "High"
- molecule: "Cc1cc(O)cc(C)c1Cl [Chloroxylenol]"
  discrete-label: "High"
